Data origin, for the record: patent US20220347180A1

tested on: MB3447 melanoma line; assay: ATP viability assay (Cell Titer-Glo); type: cell-based; settings: Homo sapiens; MB3447, Triple WT, 48 h
pIC50: −log10 of the molar value.

- SMILES_STRUCTURE: "Cc1c(-c2c(-c3ccc(F)o3)sc3ncnc(O[C@H](Cc4ccccc4OCc4ccnn4CC(F)(F)F)C(=O)O)c23)ccc(OCCN2CCN(C)CC2)c1Cl"
  OPERATOR: "="
  pIC50: 5.26
- SMILES_STRUCTURE: "CC1(C)CCC(CN2CCN(c3ccc(C(=O)NS(=O)(=O)c4ccc(NCC5CCOCC5)c([N+](=O)[O-])c4)c(Oc4cnc5[nH]ccc5c4)c3)CC2)=C(c2ccc(Cl)cc2)C1"
  OPERATOR: "<"
  pIC50: 5.00
